These entries and their values trace back to patent US20210388087A1.

Molecular target: T1, Human CD3eg linker (human)
T1 construct: Single chain: epsilon and gamma subunits of human CD3 joined by a 29-mer linker, Flag-tag at the C-terminus; also called recombinant human CD3
T1 chain: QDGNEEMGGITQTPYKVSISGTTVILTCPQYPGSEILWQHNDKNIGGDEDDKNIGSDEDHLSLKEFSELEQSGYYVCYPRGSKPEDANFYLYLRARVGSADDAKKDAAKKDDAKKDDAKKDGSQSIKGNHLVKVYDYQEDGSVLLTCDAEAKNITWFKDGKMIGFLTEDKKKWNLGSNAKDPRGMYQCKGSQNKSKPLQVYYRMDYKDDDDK
Experiment: Biacore SPR, vs template H183/L072
A collection of binders and their measured fold change of affinity
Give just the numeric value; fold need not be written.

binder="H183/L072 VH Y59T (antibody, name in Kabat numbering, V domains shown) VH: QVQLVESGGGLVQPGRSLRLSCAASGFTFSNAWMHWVRQAPGKGLEWVAQIKDKGNAYAAYTAPSVKGRFTISRDDSKNSIYLQMNSLKTEDTAVYYCHYVHYASASTVLPAFGVDAWGQGTTVTVSS VL: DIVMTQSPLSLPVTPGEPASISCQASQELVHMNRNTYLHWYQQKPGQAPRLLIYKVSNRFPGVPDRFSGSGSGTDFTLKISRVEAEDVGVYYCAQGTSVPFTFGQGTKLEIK" quantitative_readout=1.2

Input line: Requested field: fold change of affinity. Item: H183/L072 VH F27H (antibody, name in Kabat numbering, V domains shown) VH: QVQLVESGGGLVQPGRSLRLSCAASGHTFSNAWMHWVRQAPGKGLEWVAQIKDKGNAYAAYYAPSVKGRFTISRDDSKNSIYLQMNSLKTEDTAVYYCHYVHYASASTVLPAFGVDAWGQGTTVTVSS VL: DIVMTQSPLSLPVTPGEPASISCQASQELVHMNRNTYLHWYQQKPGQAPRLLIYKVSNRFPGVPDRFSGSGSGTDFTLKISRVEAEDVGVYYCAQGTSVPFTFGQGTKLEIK
Output line: 0.1

Input line: Would you kindly share the measured fold change of affinity for H183/L072 VH L100dI (antibody, name in Kabat numbering, V domains shown) VH: QVQLVESGGGLVQPGRSLRLSCAASGFTFSNAWMHWVRQAPGKGLEWVAQIKDKGNAYAAYYAPSVKGRFTISRDDSKNSIYLQMNSLKTEDTAVYYCHYVHYASASTVIPAFGVDAWGQGTTVTVSS VL: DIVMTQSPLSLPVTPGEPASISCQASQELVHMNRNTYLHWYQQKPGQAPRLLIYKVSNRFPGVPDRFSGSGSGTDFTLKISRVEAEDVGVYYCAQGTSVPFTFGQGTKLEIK ?
Output line: 1.2

Input line: Data request, read-out fold change of affinity, for H183/L072 VH D52aM (antibody, name in Kabat numbering, V domains shown) VH: QVQLVESGGGLVQPGRSLRLSCAASGFTFSNAWMHWVRQAPGKGLEWVAQIKMKGNAYAAYYAPSVKGRFTISRDDSKNSIYLQMNSLKTEDTAVYYCHYVHYASASTVLPAFGVDAWGQGTTVTVSS VL: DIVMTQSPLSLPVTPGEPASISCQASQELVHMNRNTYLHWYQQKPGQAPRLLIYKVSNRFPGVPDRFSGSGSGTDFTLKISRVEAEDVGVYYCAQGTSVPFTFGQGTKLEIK
Output line: 0

Input line: Name the recorded fold change of affinity for H183/L072 VH Y58A (antibody, name in Kabat numbering, V domains shown) VH: QVQLVESGGGLVQPGRSLRLSCAASGFTFSNAWMHWVRQAPGKGLEWVAQIKDKGNAYAAAYAPSVKGRFTISRDDSKNSIYLQMNSLKTEDTAVYYCHYVHYASASTVLPAFGVDAWGQGTTVTVSS VL: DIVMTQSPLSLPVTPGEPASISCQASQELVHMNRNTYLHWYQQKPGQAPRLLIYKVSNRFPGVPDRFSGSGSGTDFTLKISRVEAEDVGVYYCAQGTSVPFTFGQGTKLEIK .
Output line: 0.6
